test system: Ba/F3 ALK-WT; assay: Growth of transfected Ba/F3 cells (CellTiter-Glo, 3 days); assay type: cell-based; conditions: Mus musculus, BaF3; ALK-WT; read-out: IC50
Field: pIC50. Provide a value for each of the molecules that follow.
Scale for pIC50: -log10 of concentration given in mol/L; no unit attached.

Request: Return reported pIC50; argument: C[C@@H]1CN(C(=O)c2ccc(NC(=O)c3cc(O[C@H](C)c4c(Cl)ccc(F)c4Cl)c(N)nn3)cc2)C[C@H](C)N1 [Ensartinib]
Response: 7.85

Request: Return reported pIC50; argument: Cc1cc(Nc2ncc(Cl)c(Nc3ccccc3S(=O)(=O)C(C)C)n2)c(OC(C)C)cc1C1CCNCC1 [Ceritinib]
Response: 7.89

Request: Return reported pIC50; argument: COc1cc(N2CCC3(CCN(C)CC3)CC2)ccc1Nc1ncc(Cl)c(Nc2ccccc2P(C)(C)=O)n1 [WX-0593]
Response: 7.68

---

system: Ba/F3 ALK-I1171T; test: Growth of transfected Ba/F3 cells (CellTiter-Glo, 3 days); format: cell-based; conditions: Mus musculus, BaF3
Field: pIC50. Provide a value for each of the compounds that follow.
Scale for pIC50: -log10 of concentration given in mol/L; no unit attached.

Request: Return reported pIC50; argument: C[C@H]1Oc2cc(cnc2N)-c2c(nn(C)c2C#N)CN(C)C(=O)c2ccc(F)cc21
Response: 7.72

Request: Return reported pIC50; argument: COc1cc(N2CCC(N3CCN(C)CC3)CC2)ccc1Nc1ncc(Cl)c(Nc2ccccc2P(C)(C)=O)n1
Response: 7.72

---

Test system: Ba/F3 ALK-V1180L
Experiment: Growth of transfected Ba/F3 cells (CellTiter-Glo, 3 days)
Assay type: cell-based
Settings: Mus musculus, BaF3
Protocol: Harvest cells during the logarithmic growth period and count cells using blood counting chamber. Adjust cell concentration with culture medium. Add 90µl cell suspensions to two 96-well plates to the final cell density as described before. Incubate the plate overnight in humidified incubator at 37℃ with 5% CO2. […] On Day 3, Read luminescent using Multi Label Reader. […]
Field: pIC50. Provide a value for each of the molecules that follow.
Scale for pIC50: -log10 of concentration given in mol/L; no unit attached.

Request: Return reported pIC50; argument: COc1cc(N2CCC(N3CCN(C)CC3)CC2)ccc1Nc1ncc(Cl)c(Nc2ccccc2P(C)(C)=O)n1
Response: 7.98

Request: Return reported pIC50; argument: C[C@H]1Oc2cc(cnc2N)-c2c(nn(C)c2C#N)CN(C)C(=O)c2ccc(F)cc21
Response: 8.28

---

test: Phase 1 dose-escalation phase: plasma pharmacokinetics; type: in vivo, human; settings: human, plasma, oral; single dose 60 mg (n = 3), mean (SD); read-out: T1/2z (converted)
recorded-metric: half-life (h)
State the answer as a number, implicitly in h.

Request: Return reported half-life; argument: COc1cc(N2CCC3(CCN(C)CC3)CC2)ccc1Nc1ncc(Cl)c(Nc2ccccc2P(C)(C)=O)n1
Response: 25.7

---

assay: Phase 1 dose-escalation phase: plasma pharmacokinetics; type: in vivo, human; settings: human, plasma, oral, 240 mg, single dose 240 mg (n = 10), mean (SD); read-out: AUC0-t
recorded-metric: AUC(0-t) (ng·h/mL)
State the answer as a number, implicitly in ng·h/mL.

Request: Return reported AUC(0-t); argument: COc1cc(N2CCC3(CCN(C)CC3)CC2)ccc1Nc1ncc(Cl)c(Nc2ccccc2P(C)(C)=O)n1
Response: 15500
